# Lookup of reported IC50 keyed by entry
- Tested on: Echinochloa crus-galli
- test: Phytotoxicity against Echinochloa crus-galli assessed as inhibition of radicle elongation by petri dish bioassay
- Type: functional, organism-based
All answers are understood in µM, so give the number only.

The examples below pair each entry with its known result.
CO[C@@H]1c2c(ccc3ccc(=O)oc23)OC(C)(C)[C@@H]1O    6.19
CC(C)C(=O)O[C@@H]1Cc2c(ccc3ccc(=O)oc23)OC1(C)C    169
CO[C@H]1c2c(ccc3ccc(=O)oc23)OC(C)(C)[C@@H]1O    808
C/C=C(/C)C(=O)O[C@@H]1[C@H](O)c2c(ccc3ccc(=O)oc23)OC1(C)C    155
CC(=O)O[C@@H]1[C@H](OC(=O)C(C)C)c2c(ccc3ccc(=O)oc23)OC1(C)C [SERAVSHANIN]    162

IN: Request the reported IC50 associated with `COc1c2c(cc3oc(C)cc(=O)c13)OC(C)(C)[C@H](O)C2`
OUT: 461

IN: Try the molecule `C/C=C(/C)C(=O)O[C@@H]1Cc2c(cc3oc(C)cc(=O)c3c2OC)OC1(C)C`
OUT: 26.4

IN: Try the molecule C/C=C(/C)C(=O)O[C@@H]1Cc2c(ccc3ccc(=O)oc23)OC1(C)C [JATAMANSIN]
OUT: 863

IN: Try the molecule `CC(C)C(=O)O[C@@H]1c2c(ccc3ccc(=O)oc23)OC(C)(C)[C@@H]1O`
OUT: 595

---

- study.target: Calmodulin (Spinacia oleracea) (UniProt P04353)
- test: Binding affinity to spinach calmodulin assessed as modification of electrophoretic mobility at 0.033 ug/mL after 1.5 hrs by SDS-PAGE in presence of calcium chloride
Calls of active or inactive are those of the source. The calls are words filed in the database; no cut-off is given here.
readout.label: Activity

CCC(=O)O[C@@H]1c2c(ccc3ccc(=O)oc23)OC(C)(C)[C@@H]1OC(C)=O    Active
CC1(C)Oc2ccc3ccc(=O)oc3c2C[C@H]1O [(+)-LOMATIN]    Active
CC(C)C(=O)O[C@@H]1c2c(ccc3ccc(=O)oc23)OC(C)(C)[C@@H]1O    Active
